# tested_target: CYP3A4 (Homo sapiens, UniProt P08684)
# Sequence (P08684 whole entry): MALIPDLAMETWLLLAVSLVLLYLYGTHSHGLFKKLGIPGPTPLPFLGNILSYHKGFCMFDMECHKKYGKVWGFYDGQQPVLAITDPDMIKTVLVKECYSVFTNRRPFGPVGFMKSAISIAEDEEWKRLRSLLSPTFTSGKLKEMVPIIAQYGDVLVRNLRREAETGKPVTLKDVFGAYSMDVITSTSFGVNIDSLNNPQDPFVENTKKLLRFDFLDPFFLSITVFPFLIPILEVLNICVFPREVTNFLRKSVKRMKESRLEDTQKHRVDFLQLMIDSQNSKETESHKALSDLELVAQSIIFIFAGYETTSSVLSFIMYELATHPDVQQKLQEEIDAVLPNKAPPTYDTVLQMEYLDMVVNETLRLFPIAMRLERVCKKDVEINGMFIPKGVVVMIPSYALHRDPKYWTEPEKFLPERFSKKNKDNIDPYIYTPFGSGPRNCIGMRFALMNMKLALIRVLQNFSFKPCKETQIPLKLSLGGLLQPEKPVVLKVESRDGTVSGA
# test_description: Cytochrome P450 (CYP450) Inhibition Assay, CYP3A4 (Vivid fluorescence, BOMCC substrate)
# conditions_used: human, P450 Baculosomes (recombinant CYP3A4), probe BOMCC (Vivid substrate)

{"columns": ["molecule", "inhibition at 10 µM"],
 "data": [
  ["COCC(=O)Nc1cccc2c1C1(COc3cc4c(cc31)OCCO4)C(=O)N2C (stereo not drawn) [Example 16.28]", "< 50%"],
  ["Cc1nc2cc3c(cc2s1)C1(CO3)C(=O)N(Cc2ncc(Cl)n2C)c2ccccc21 (stereo not drawn) [Example 9.22]", "> 50%"],
  ["O=C1N(C[C@H]2CCCO2)c2ccccc2[C@@]12COc1cc3c(cc12)CCO3 [Example 11.67]", "< 50%"]
]}

---

{"columns": ["compound", "melting point"],
 "data": [
  ["Cc1ccc(C)c(NC(=O)CN2C(=O)C3(COc4cc5c(cc43)CCO5)c3ccccc32)c1 (centres unmarked) [Example 12.53]", "250 to 252 °C"],
  ["Cc1nc2cc3c(cc2s1)C1(CO3)C(=O)N(CCC(C)C)c2ccccc21 (centres unmarked) [Example 4.56]", "137 to 138 °C"],
  ["O=C1N(CCCOCc2ccccc2)c2ccccc2C12COc1cc3c(cc12)OCCO3 (centres unmarked) [Example 9.43]", "37 to 38 °C"],
  ["Cc1cc(CN2C(=O)C3(COc4cc5c(cc43)OCO5)c3ccccc32)c(C)n1C(C)C (centres unmarked) [Example 1.3]", "169 to 171 °C"],
  ["CN1C(=O)C2(COc3cc4c(cc32)OCCO4)c2c(NC(=O)C3CCCCC3)cccc21 (centres unmarked) [Example 16.23]", "96 to 98 °C"],
  ["Cc1noc2cc3c(cc12)C1(CO3)C(=O)N(CCC(C)C)c2ccccc21 (centres unmarked) [Example 9.55]", "135 to 138 °C"],
  ["Nc1cccc2c1C1(COc3cc4c(cc31)OCCO4)C(=O)N2Cc1ncccc1C(F)(F)F (centres unmarked) [Example 16.50]", "243 to 245 °C"],
  ["O=C(O)c1cccc(CN2C(=O)C3(COc4cc5c(cc43)CCO5)c3ccccc32)c1 (centres unmarked) [Example 11.12]", "> 250 °C"]
]}

---

# tested_target: UniProt P08684
# test_description: Cytochrome P450 (CYP450) Inhibition Assay, CYP3A4 (Vivid fluorescence, BOMCC substrate)
# conditions_used: human, P450 Baculosomes (recombinant CYP3A4), probe BOMCC (Vivid substrate)

{"columns": ["compound", "inhibition at 10 µM"],
 "data": [
  ["O=C1Nc2cccc(-c3cnc4ccccc4c3)c2C12COc1cc3c(cc12)OCCO3 (centres unmarked) [Example 3.34]", "> 50%"],
  ["CN1CCOc2cc3c(cc21)OCC31C(=O)N(C[C@H]2CCCO2)c2ccccc21 (some centres unmarked) [Example 2.30]", "> 50%"],
  ["O=C1N(Cc2ccc(OCc3ccccc3)cc2)c2ccccc2C12COc1cc3c(cc12)CCO3 (centres unmarked) [Example 9.38]", "< 50%"],
  ["COCCOCCN1C(=O)[C@@]2(COc3cc4c(cc32)OCCO4)c2ccccc21 [Example 9.70]", "< 50%"],
  ["CN1C(=O)C2(COc3cc4c(cc32)OCCO4)c2c(-c3cc(O)[nH]n3)cccc21 (centres unmarked) [Example 27]", "< 50%"],
  ["COc1ccc(CN2C(=O)C3(COc4cc5onc(C)c5cc43)c3ccccc32)cc1 (centres unmarked) [Example 2.6]", "> 50%"],
  ["Cc1noc2cc3c(cc12)C1(CO3)C(=O)N(Cc2ccc(C(F)(F)F)o2)c2ccccc21 (centres unmarked) [Example 9]", "> 50%"],
  ["O=C1N(CCCOCc2ccccc2)c2ccccc2C12COc1cc3c(cc12)OCCO3 (centres unmarked) [Example 9.43]", "< 50%"],
  ["O=C1Nc2cccc(O)c2C12COc1cc3c(cc12)OCCO3 (centres unmarked) [Example 16.51]", "< 50%"],
  ["O=C1Nc2ccccc2C12COc1cc(F)c(F)cc12 (centres unmarked) [Example 3.44]", "> 50%"],
  ["O=C1N(Cc2noc(C3CC3)n2)c2cccc(Cl)c2C12COc1cc3c(cc12)OCO3 (centres unmarked) [Example 11.20]", "> 50%"],
  ["O=C1N(Cc2ccccn2)c2ccccc2C12COc1cc(F)c(F)cc12 (centres unmarked) [Example 9.64]", "< 50%"],
  ["CCn1cncc1CN1C(=O)C2(COc3cc4c(cc32)CCO4)c2ccccc21 (centres unmarked) [Example 4.21]", "> 50%"],
  ["Cn1nc(C(F)(F)F)c(CN2C(=O)C3(COc4cc5c(cc43)OCO5)c3ccccc32)c1Cl (centres unmarked) [Example 1.16]", "> 50%"],
  ["O=C1Nc2cc(F)ccc2C12COc1cc3c(cc12)CCO3 (centres unmarked) [Example 3.5]", "> 50%"],
  ["CN(C)c1ccc(-c2cccc3c2C2(COc4cc5c(cc42)OCCO5)C(=O)N3Cc2ccccn2)cn1 (centres unmarked) [Example 16.59]", "> 50%"],
  ["O=C1N(Cc2ccc(Cl)s2)c2cccc(Br)c2C12COc1cc3c(cc12)OCO3 (centres unmarked) [Example 4.86]", "> 50%"]
]}

---

# tested_target: CYP3A4 (Homo sapiens, UniProt P08684)
# test_description: Cytochrome P450 (CYP450) Inhibition Assay, CYP3A4 (Vivid fluorescence, BOMCC substrate)
# conditions_used: human, P450 Baculosomes (recombinant CYP3A4), probe BOMCC (Vivid substrate)
Where a name gives a salt, the structure may show the parent alone.
measurement_type: inhibition at 10 µM

{"columns": ["compound", "measurement_type", "experimental_value"],
 "data": [
  ["O=C1N(CC2CCO2)c2ccccc2C12COc1cc3c(cc12)CCO3 (stereo not drawn)", "inhibition at 10 µM", "< 50%"],
  ["CN1C(=O)C2(COc3cc4c(cc32)OCCO4)c2c(C(=O)NC3CCCC3)cccc21 (stereo not drawn)", "inhibition at 10 µM", "< 50%"],
  ["O=C1N(Cc2cccnc2)c2ccccc2C12COc1ccc3nonc3c12 (stereo not drawn)", "inhibition at 10 µM", "< 50%"],
  ["CN1CCC(CN2C(=O)C3(COc4cc5c(cc43)CCO5)c3ccccc32)CC1 (stereo not drawn)", "inhibition at 10 µM", "> 50%"],
  ["CCCCCCCNC(=O)c1ccccc1CN1C(=O)C2(COc3cc4c(cc32)CCO4)c2ccccc21 (stereo not drawn)", "inhibition at 10 µM", "> 50%"],
  ["COC(=O)c1cccc(CN2C(=O)C3(COc4cc5c(cc43)CCO5)c3ccccc32)c1 (stereo not drawn)", "inhibition at 10 µM", "> 50%"],
  ["Nc1cccnc1CN1C(=O)C2(COc3cc4c(cc32)OCCO4)c2ccccc21 (stereo not drawn) [Example 11.97, hydrobromide]", "inhibition at 10 µM", "> 50%"],
  ["O=C1N(C[C@@H]2CCCO2)c2ccccc2[C@@]12COc1cc3c(cc12)CCO3", "inhibition at 10 µM", "> 50%"],
  ["O=C1N(Cc2ccccn2)c2ccccc2C12COc1cc3c(cc12)OCCC3 (stereo not drawn)", "inhibition at 10 µM", "> 50%"],
  ["CCCCCCN1C(=O)C2(COc3cc4c(cc32)OCCO4)c2ccccc21 (stereo not drawn)", "inhibition at 10 µM", "> 50%"],
  ["O=C1Nc2c(Br)cccc2C12COc1cc3c(cc12)OCO3 (stereo not drawn)", "inhibition at 10 µM", "> 50%"],
  ["Cc1noc(-c2cccc(CN3C(=O)C4(COc5cc6c(cc54)OCCO6)c4ccccc43)c2)n1 (stereo not drawn)", "inhibition at 10 µM", "< 50%"],
  ["N#Cc1cc2c(cc1F)OCC21C(=O)N(Cc2ncccc2C(F)(F)F)c2ccccc21 (stereo not drawn)", "inhibition at 10 µM", "< 50%"],
  ["O=C1N(C[C@H]2CCCO2)c2c(Cl)cccc2C12COc1cc3c(cc12)CCO3 (stereo partly drawn)", "inhibition at 10 µM", "< 50%"],
  ["Cc1c(F)cccc1NC(=O)c1ccc(CN2C(=O)C3(COc4cc5c(cc43)CCO5)c3ccccc32)cc1 (stereo not drawn)", "inhibition at 10 µM", "< 50%"],
  ["O=C(NC1CC1)c1coc(CN2C(=O)C3(COc4cc5c(cc43)OCO5)c3ccccc32)n1 (stereo not drawn)", "inhibition at 10 µM", "> 50%"],
  ["O=C1N(C[C@@H]2COCCO2)c2ccccc2C12COc1cc3c(cc12)OCC3 (stereo partly drawn)", "inhibition at 10 µM", "< 50%"],
  ["COc1cc2c(cc1F)C1(CO2)C(=O)N(C[C@H]2CCCO2)c2ccccc21 (stereo partly drawn)", "inhibition at 10 µM", "< 50%"],
  ["CN(C)C(=O)c1ccc(CN2C(=O)C3(COc4cc5c(cc43)CCO5)c3ccccc32)o1 (stereo not drawn)", "inhibition at 10 µM", "> 50%"],
  ["CNC(=O)c1cc(CN2C(=O)C3(COc4cc5c(cc43)OCO5)c3ccccc32)oc1C(F)(F)F (stereo not drawn)", "inhibition at 10 µM", "> 50%"],
  ["O=C1N(C[C@@H]2COCCO2)c2ccccc2[C@@]12COc1cc3c(cc12)OCCO3", "inhibition at 10 µM", "< 50%"],
  ["COc1cc2c(cc1C)C1(CO2)C(=O)N(CC2CCCCO2)c2ccccc21 (stereo not drawn)", "inhibition at 10 µM", "> 50%"],
  ["Cn1c(CN2C(=O)C3(COc4cc5c(cc43)CCO5)c3ccccc32)cnc1Cl (stereo not drawn)", "inhibition at 10 µM", "> 50%"],
  ["O=C1Nc2ccccc2C12COc1ccc3nonc3c12 (stereo not drawn)", "inhibition at 10 µM", "< 50%"],
  ["CCCCCNC(=O)c1cccc2c1C1(COc3cc4c(cc31)OCCO4)C(=O)N2C (stereo not drawn)", "inhibition at 10 µM", "< 50%"],
  ["CN(C)c1cccc(CN2C(=O)C3(COc4cc5c(cc43)OCCO5)c3ccccc32)n1 (stereo not drawn)", "inhibition at 10 µM", "> 50%"],
  ["O=C1N(Cc2ccc(C(F)(F)F)o2)c2ccccc2C12COc1cc(N[C@@H]3CCNC3)ccc12 (stereo partly drawn)", "inhibition at 10 µM", "> 50%"],
  ["O=C1N(Cc2cc(C(F)(F)F)ccn2)c2ccccc2C12COc1cc3c(cc12)OCCO3 (stereo not drawn)", "inhibition at 10 µM", "< 50%"],
  ["CN1C(=O)C2(COc3cc4c(cc32)OCCO4)c2c(-c3cnn(C)c3)cccc21 (stereo not drawn)", "inhibition at 10 µM", "< 50%"],
  ["COCCOCCN1C(=O)C2(COc3cc4c(cc32)OCCO4)c2cc3c(cc21)OCCO3 (stereo not drawn)", "inhibition at 10 µM", "< 50%"],
  ["CCCCCN1C(=O)[C@]2(COc3cc4c(cc32)OCCO4)c2ccccc21", "inhibition at 10 µM", "> 50%"],
  ["COCCOCCN1C(=O)C2(COc3cc4c(cc32)OCCO4)c2ccccc21 (stereo not drawn)", "inhibition at 10 µM", "< 50%"],
  ["Cc1ccc(NC(=O)CN2C(=O)C3(COc4cc5c(cc43)CCO5)c3ccccc32)c(C)c1 (stereo not drawn)", "inhibition at 10 µM", "> 50%"]
]}
